Attribution: PubChem BioAssay (NCI)

- Tested on: A498 renal
- assayText: NCI tumour cell line growth inhibition, 48 h
assayReadout: GI50

Look over these answered cases.
CC(=O)[CH-]C(=O)c1ccccc1.CC(=O)[CH-]C(=O)c1ccccc1.CCN(CC)CC[O-].CCN(CC)CC[O-].Cl.[Hf+4] = 32.2 µM
Brc1ccc(SCN(CSc2ccc(Br)cc2)Cc2ccccc2)cc1 = 1.51 µM
N#C/C(=C\c1cn(Cc2ccccc2)c2ccccc12)C(=O)Nc1ncc(Cc2ccccc2Cl)s1 = 1.08 µM

Attention now shifts to the item below.
# Cn1c(=O)n(CCCO)c(=O)c2c1nc(Oc1cccc(OC(F)(F)F)c1)n2Cc1ccc(Cl)cc1 with A498 renal: GI50 is 13.8 µM

###

- System: U251 CNS
Returns: one label drawn from active, inactive

Example entries and their recorded answers appear below.
COc1cc(CN[C@H]2CCc3cc(OC)c(OC)c(OC)c3-c3ccc(SC)c(=O)cc32)cc(OC)c1 = active
COc1cc(C(=O)c2c(-c3ccccc3)oc3c(OC)cccc23)cc(OC)c1O = inactive
O=C1NC(=O)/C(=C/c2c(Cl)nc3sccn23)S1 = inactive

Lab log entry: N#Cc1c(-c2ccc(Cl)cc2)csc1NC(=O)Nc1ccc(Cl)c(C(F)(F)F)c1 — outcome as called in the assay? inactive

Lab log entry: CC1(C)CCC2(CC1)N[C@@H](C(=O)N[C@@H]1CC[C@@H](C(N)=O)OC1)[C@H](c1ccnc(Cl)c1F)[C@]21C(=O)Nc2cc(Cl)ccc21 — outcome as called in the assay? inactive

Lab log entry: O=C(NC(=S)Nc1ccccn1)c1ccccc1 — outcome as called in the assay? inactive

Lab log entry: Cn1c(=O)n(CCCO)c(=O)c2c1nc(Oc1cccc(OC(F)(F)F)c1)n2Cc1ccc(Cl)cc1 — outcome as called in the assay? inactive

Lab log entry: CCCSc1ccc2nc(NC(=O)OC)[nH]c2c1 — outcome as called in the assay? active

###

Please go through the items and note down their TGI.
- Tested on: LOX IMVI melanoma
- assayText: NCI tumour cell line growth inhibition, 48 h

Look over these answered cases.
O=C(NCCOC(=O)OCCNC(=O)NC1CCCCC1)NC1CCCCC1 = > 100 µM
Nc1nc2[nH]c(=O)cnc2c(=O)[nH]1 = > 125 µM
CN1CCCC1c1cccnc1.O=C(O)c1ccccc1O.O=C([O-])c1ccccc1[OH2+].O=C([O-])c1ccccc1[OH2+].O=C([O-])c1ccccc1[OH2+].[Cu+2] (configuration not stated) = > 100 µM
COC(=O)C1=C(OC(=O)c2ccccc2)C(C(=O)OC)[C@]2(O)[C@@H](C(=O)OC)C1CC(c1ccccc1OC)[C@@H]2C(=O)OC (some centres not stated) = > 100 µM
O=C1C=CC(=O)c2c(O)c(N3CCN(c4ccccn4)CC3)c(Cl)c(O)c21 = 0.299 µM

Batch request: TGI for each of the following compounds.
1. CCC1CC(C)C(O)/C=C/C=C/CC(C)OC(=O)CC(O)C(OC)C1OC1OC(C)CC(O)(C(C)=O)C1O (configuration not stated)
2. Cc1ccc(NC(=O)/C(CC2N=c3c(ccc4c(O)c5ccccc5c(O)c34)=NC2O)=N/NC(C)(C)C)cc1 (configuration not stated)
3. N#CC[C@@H](O)COc1ccccc1

> 100 µM
25.3 µM
> 100 µM
